Overview of reported half-life across a group of compounds:
run description: Half life in mouse at 10 mg/kg, po
Format: ADME, organism-based
run conditions: in vivo
Respond numerically; units are h and should not be typed.

Worked cases, half-life given:
> print(dat)
                        structure.as.smiles  assay.readout  endpoint.result
1  O=C(NCc1cnco1)Nc1ccc(S(=O)(=O)c2cccc(OC(F)(F)F)c2)cc1      half-life              2.3
2  O=C(NCc1cn[nH]c1)Nc1ccc(S(=O)(=O)c2ccccc2)cc1      half-life              2.5
3  O=C(NCc1cn[nH]c1)Nc1ccc(S(=O)(=O)c2ccc(Cl)cc2)cc1      half-life              3.2
4  CN(Cc1ccccc1)S(=O)(=O)c1ccc(NC(=O)NCc2ccncc2)cc1      half-life              0.6

Let's switch to this compound now.
-- ask For O=C(NCc1ccncc1)Nc1ccc(S(=O)(=O)N2CCc3ccccc3C2)cc1 , what is its reported half-life?
-- reply 1

###

study target: Nicotinamide phosphoribosyltransferase (Homo sapiens, UniProt P43490)
Sequence (P43490 whole entry): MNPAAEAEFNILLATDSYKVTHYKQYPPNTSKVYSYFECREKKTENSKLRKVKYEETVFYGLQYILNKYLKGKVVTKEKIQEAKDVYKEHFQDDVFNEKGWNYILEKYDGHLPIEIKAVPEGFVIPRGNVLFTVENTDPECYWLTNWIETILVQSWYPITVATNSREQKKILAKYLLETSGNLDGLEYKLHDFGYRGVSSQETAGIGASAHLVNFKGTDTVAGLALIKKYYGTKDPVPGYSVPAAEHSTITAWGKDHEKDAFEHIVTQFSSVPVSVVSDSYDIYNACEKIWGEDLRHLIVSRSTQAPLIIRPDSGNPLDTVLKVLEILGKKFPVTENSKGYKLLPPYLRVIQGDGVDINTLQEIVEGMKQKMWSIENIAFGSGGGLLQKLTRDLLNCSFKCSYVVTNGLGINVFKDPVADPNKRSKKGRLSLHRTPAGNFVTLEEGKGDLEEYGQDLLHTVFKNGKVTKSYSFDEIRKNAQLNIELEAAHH
run description: Activation of human NAMPT
Entries and their EC50

> print(dat)
                        structure.as.smiles  assay.readout  endpoint.result
1  O=C(NCc1ccncc1)Nc1ccc(S(=O)(=O)c2ccccc2)cc1           EC50            85 nM
2        CCOC(=O)c1ccc(NC(=O)NCc2ccnnc2)cc1           EC50      > 100000 nM
3  CN(C)S(=O)(=O)c1ccc(NC(=O)NCc2ccncc2)cc1           EC50          3110 nM
4         CCOC(=O)c1ccc(NC(=O)NCc2cocn2)cc1           EC50         27600 nM
5  O=C(NCc1cn[nH]c1)Nc1ccc(S(=O)(=O)c2ccc(Cl)cc2)cc1           EC50            23 nM

Now look at this one.
-- ask Entry O=C(NCc1cnco1)Nc1ccc(S(=O)(=O)c2ccccc2)cc1 has what EC50?
-- reply 77 nM

###

study target: CYP3A4 (Homo sapiens, UniProt P08684)
Sequence (P08684 whole entry): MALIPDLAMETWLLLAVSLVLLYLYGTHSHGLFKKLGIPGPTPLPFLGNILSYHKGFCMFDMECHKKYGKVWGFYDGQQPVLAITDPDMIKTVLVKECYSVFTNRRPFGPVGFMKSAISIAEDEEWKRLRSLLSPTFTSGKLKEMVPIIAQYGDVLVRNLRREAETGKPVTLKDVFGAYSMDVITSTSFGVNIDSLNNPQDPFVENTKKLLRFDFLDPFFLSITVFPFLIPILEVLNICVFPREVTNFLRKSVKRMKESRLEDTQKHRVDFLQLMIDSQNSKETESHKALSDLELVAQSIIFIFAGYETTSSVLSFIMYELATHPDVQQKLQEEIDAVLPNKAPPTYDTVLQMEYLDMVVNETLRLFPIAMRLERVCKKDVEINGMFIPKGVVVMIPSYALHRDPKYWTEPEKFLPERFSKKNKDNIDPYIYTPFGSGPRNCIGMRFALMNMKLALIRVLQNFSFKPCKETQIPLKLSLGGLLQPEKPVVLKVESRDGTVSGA
run description: Inhibition of CYP3A4 (unknown origin) at 10 uM measured after 10 mins
Assay type: ADME
assay readout: inhibition at 10 min, 10 µM (%)
Answer format: numeric, % implied, no suffix.

-- ask Which inhibition at 10 min, 10 µM value is on record for O=C(NCc1cn[nH]c1)Nc1ccc(S(=O)(=O)c2ccc(Cl)cc2)cc1 ?
-- reply 0

###

Property: pEC50; scope: individual molecules
study target: UniProt P43490
run description: Activation of human NAMPT
Would you please state pEC50, meaning minus log10 of the concentration in mol/L, as a bare number?

Take a look at these entries with their results.
> print(dat)
                                   molecule  assay.readout  endpoint.result
1  CCOC(=O)c1ccc(NC(=O)NC(C)c2ccncc2)cc1 (configuration not stated)          pEC50             5.64
2      CCOC(=O)c1ccc(NC(=O)NCc2c[nH]nn2)cc1          pEC50             5.11
3     CNS(=O)(=O)c1ccc(NC(=O)NCc2ccncc2)cc1          pEC50             5.49
4        CCOC(=O)c1ccc(NC(=O)OCc2ccncc2)cc1          pEC50             4.97
5      CCOC(=O)c1ccc(NC(=O)NCc2cn[nH]c2)cc1          pEC50             5.73
6        CCOC(=O)c1ccc(NC(=O)CCc2ccncc2)cc1          pEC50             4.80

-- ask So what's the measured pEC50 for this one? CCOC(=O)c1ccc(NC(=O)NCc2ccccc2)cc1
-- reply 5.86

-- ask Query (molecule): CCOC(=O)c1ccc(NC(=O)NCc2ccncn2)cc1 ; field requested: pEC50
-- reply 4.87

-- ask Tell me the measured pEC50 of O=C(NCc1ccncc1)Nc1ccc(S(=O)(=O)N2CCc3ccccc3C2)cc1 , please.
-- reply 6.85

-- ask Item under review: CCOC(=O)c1ccc(NC(=S)NCc2ccncc2)cc1 . Reported pEC50?
-- reply 5.01

###

run description: Metabolic stability in mouse liver microsomes assessed as parent compound remaining at 1 uM measured after 30 mins
Assay type: ADME, Microsome
run conditions: read-out: Stabilty
assay readout: remaining at 0.5 h, 1 µM
Note to self: number, then unit, no commentary.

-- ask Requested read-out: remaining at 0.5 h, 1 µM. Entry: O=C(NCc1cn[nH]c1)Nc1ccc(S(=O)(=O)c2ccc(Cl)cc2)cc1
-- reply 18%

###

run description: Metabolic stability in human liver microsomes assessed as parent compound remaining at 1 uM measured after 30 mins
Assay type: ADME, Microsome
run conditions: read-out: Stabilty
assay readout: remaining at 0.5 h, 1 µM (%)
Unit % implied. Number only.

-- ask I am curious: what remaining at 0.5 h, 1 µM value has been reported for O=C(NCc1cn[nH]c1)Nc1ccc(S(=O)(=O)c2ccc(Cl)cc2)cc1 ?
-- reply 87

###

study target: CYP1A2 (Homo sapiens)
Sequence (P05177 whole entry): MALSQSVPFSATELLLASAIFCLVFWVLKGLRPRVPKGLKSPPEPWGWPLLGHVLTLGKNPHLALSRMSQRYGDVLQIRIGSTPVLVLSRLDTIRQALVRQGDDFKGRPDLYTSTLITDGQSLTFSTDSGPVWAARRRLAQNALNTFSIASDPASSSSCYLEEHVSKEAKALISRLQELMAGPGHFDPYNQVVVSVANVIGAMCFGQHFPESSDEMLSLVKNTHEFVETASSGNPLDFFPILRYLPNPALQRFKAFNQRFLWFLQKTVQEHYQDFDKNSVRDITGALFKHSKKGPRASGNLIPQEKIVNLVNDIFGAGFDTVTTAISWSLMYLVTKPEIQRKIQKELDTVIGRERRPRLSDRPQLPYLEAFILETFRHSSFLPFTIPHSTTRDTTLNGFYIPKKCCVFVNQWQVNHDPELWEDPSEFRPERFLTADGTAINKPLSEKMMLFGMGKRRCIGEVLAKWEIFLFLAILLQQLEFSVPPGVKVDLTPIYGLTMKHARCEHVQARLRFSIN
run description: Inhibition of CYP1A2 (unknown origin) at 10 uM measured after 10 mins
Type: ADME
assay readout: inhibition at 10 min, 10 µM

-- ask Query (compound): O=C(NCc1cn[nH]c1)Nc1ccc(S(=O)(=O)c2ccc(Cl)cc2)cc1 ; field requested: inhibition at 10 min, 10 µM
-- reply 65%

###

run description: Oral bioavailability in mouse at 10 mg/kg
Type: ADME, organism-based
run conditions: in vivo
assay readout: bioavailability

> print(dat)
                        structure.as.smiles  endpoint.result
1  O=C(NCc1cnco1)Nc1ccc(S(=O)(=O)c2cccc(OC(F)(F)F)c2)cc1           > 100%
2  O=C(NCc1cn[nH]c1)Nc1ccc(S(=O)(=O)c2ccc(Cl)cc2)cc1              80%
3  O=C(NCc1cn[nH]c1)Nc1ccc(S(=O)(=O)c2ccccc2)cc1              45%
4  O=C(NCc1ccncc1)Nc1ccc(S(=O)(=O)N2CCc3ccccc3C2)cc1              47%

Read the next record carefully.
-- ask Any idea what its bioavailability is? The molecule is CN(Cc1ccccc1)S(=O)(=O)c1ccc(NC(=O)NCc2ccncc2)cc1
-- reply > 100%

###

run description: Cmax in mouse at 10 mg/kg, po
Format: ADME, organism-based
Parameters: route oral, dose 10 mg/kg
run conditions: in vivo
Binary classification by Cmax, with 8000 ng/mL as an inclusive lower bound for Condition met; all other cases are Condition not met.

Solved cases below.
> print(dat)
                        structure.as.smiles     category.label
1  O=C(NCc1cnco1)Nc1ccc(S(=O)(=O)c2cccc(OC(F)(F)F)c2)cc1      Condition met
2  CN(Cc1ccccc1)S(=O)(=O)c1ccc(NC(=O)NCc2ccncc2)cc1  Condition not met
3  O=C(NCc1cn[nH]c1)Nc1ccc(S(=O)(=O)c2ccccc2)cc1  Condition not met

-- ask Is it the case that O=C(NCc1cn[nH]c1)Nc1ccc(S(=O)(=O)c2ccc(Cl)cc2)cc1 has Cmax reaching or exceeding 8000 ng/mL?
-- reply Condition met

###

Known Vd of a selection of molecules
run description: Volume of distribution in mouse at 1 mg/kg, iv
Format: ADME, organism-based
run conditions: in vivo
Please reply with the bare figure in L/kg and do not write the unit itself.

These solved cases illustrate the format of a correct answer.
> print(dat)
                        structure.as.smiles  endpoint.result
1  CN(Cc1ccccc1)S(=O)(=O)c1ccc(NC(=O)NCc2ccncc2)cc1             1.37
2  O=C(NCc1cnco1)Nc1ccc(S(=O)(=O)c2cccc(OC(F)(F)F)c2)cc1             0.58
3  O=C(NCc1ccncc1)Nc1ccc(S(=O)(=O)N2CCc3ccccc3C2)cc1              0.6
4  O=C(NCc1cn[nH]c1)Nc1ccc(S(=O)(=O)c2ccccc2)cc1             1.12

// next entry
-- ask Vd for O=C(NCc1cn[nH]c1)Nc1ccc(S(=O)(=O)c2ccc(Cl)cc2)cc1 ?
-- reply 0.61

###

run description: AUC in mouse at 10 mg/kg, po
Assay type: ADME, organism-based
Design: dose 10 mg/kg
run conditions: in vivo
The label Fulfilled is reserved for AUC strictly under 50000 ng·h/mL; Not fulfilled covers values equal to or above it.

These recorded examples may help you get a feel for the data.
> print(dat)
                        structure.as.smiles  category.label
1  O=C(NCc1cnco1)Nc1ccc(S(=O)(=O)c2cccc(OC(F)(F)F)c2)cc1       Fulfilled
2  O=C(NCc1cn[nH]c1)Nc1ccc(S(=O)(=O)c2ccccc2)cc1       Fulfilled
3  O=C(NCc1ccncc1)Nc1ccc(S(=O)(=O)N2CCc3ccccc3C2)cc1       Fulfilled
4  CN(Cc1ccccc1)S(=O)(=O)c1ccc(NC(=O)NCc2ccncc2)cc1       Fulfilled

-- ask Determine if O=C(NCc1cn[nH]c1)Nc1ccc(S(=O)(=O)c2ccc(Cl)cc2)cc1 shows AUC strictly lower than 50000 ng·h/mL.
-- reply Not fulfilled
